# EXPERIMENT SUMMARY: chemical genetic growth profiling, strain panel (AID 1159580);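 further: tested at 20 µM; growth read once vehicle control cultures reached saturation at 30 °C; 1 = growth at the plate median or of vehicle wells; lower values mean less growth of the strain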
# RUN PARAMETERS: S. cerevisiae deletion strains, growth OD, locus YNL224C, strain SQS1, stronger effect = lower value
The whole screen tested about 5,500 compounds, of which about 2,000 (36%) were called active. Not shown: some 18% with an inconclusive outcome. The list shows a part of the results.
ASSAY ENDPOINT: normalized growth
Give bare numbers.

Below, each entry is followed by its recorded normalized growth result.
{"COMPOUND": "O=C(O)CC[C@@H](NC(=O)c1ccccc1C(=O)O)C(=O)O", "MEAS VALUE": 1.01}
{"COMPOUND": "CCC(=O)N1CCN(C(=O)c2ccccc2)CC1", "MEAS VALUE": 0.994}
{"COMPOUND": "c1ccc2c(c1)OCC(C1=NCCN1)O2 (stereo unspecified)", "MEAS VALUE": 1.01}

List reported normalized growth for each of these compounds:
1. O=c1cc(N2CCOCC2)oc2c(-c3ccccc3)cccc12
2. Cn1ccc2cc3c(cc21)CCN3C(=O)Nc1cccnc1

**Result**
1: 0.999; 2: 0.989

List reported normalized growth for each of these compounds:
1. O=C(c1ccc2c(c1)OCCO2)N1CCCCC1
2. OC1CCCCC1N1CCC(c2ccccc2)CC1 (stereo unspecified)
3. C=CCN1CC[C@]23c4c5ccc(O)c4O[C@@H]2/C(=N\N=C2\CC[C@@]4(O)C6Cc7ccc(O)c8c7[C@@]4(CCN6CC=C)[C@@H]2O8)CC[C@@]3(O)C1C5
4. CCCN(CCC)C(=O)C(CCC(=O)O)NC(=O)c1ccccc1 (stereo unspecified)

**Result**
1
0.997
1.01
1

List reported normalized growth for each of these compounds:
1. Cc1ccc(O)c(N=Nc2ccccc2)n1
2. O=c1cc(O)cc(/C=C/c2ccc(O)c(O)c2)o1
3. O=C(OCCN1CCOCC1)C1(c2ccccc2)CCCCC1

**Result**
[0.993, 1.02, 0.996]

List reported normalized growth for each of these compounds:
1. NCCCC(N)(C(=O)O)C(F)F (stereo unspecified)
2. CCN(CC)CCCCCCCCOC(=O)c1cc(OC)c(OC)c(OC)c1

**Result**
1: 1.01; 2: 0.985

List reported normalized growth for each of these compounds:
1. CCCN1CCc2cccc3c2[C@H]1Cc1ccc(O)c(O)c1-3
2. COc1ccc(/C=C/C(=O)Nc2ccccc2C(=O)O)cc1OC

**Result**
1. 0.996
2. 0.999

---

# EXPERIMENT SUMMARY: chemical genetic growth profiling, strain panel (AID 1159580);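 further: tested at 20 µM; growth read once vehicle control cultures reached saturation at 30 °C; 1 = growth at the plate median or of vehicle wells; lower values mean less growth of the strain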
# RUN PARAMETERS: S. cerevisiae deletion strains, growth OD, locus YBR021W, strain FUR4, stronger effect = lower value
Hit rate of the full screen: of about 5,500 compounds, about 2,000 (36%) were called active. Not shown: some 18% with an inconclusive outcome. This is one part of the list.
ASSAY ENDPOINT: normalized growth
Give bare numbers.

Below, each entry is followed by its recorded normalized growth result.
{"COMPOUND": "COc1cc(/C=C/C(=O)O)ccc1O", "MEAS VALUE": 1.01}
{"COMPOUND": "CN1CCc2cccc3c2C1Cc1ccc(O)c(O)c1-3 (configuration not stated)", "MEAS VALUE": 1.01}
{"COMPOUND": "COc1cc2c3cc1Oc1cc(ccc1O)OC1c4c(cc(OC)c(O)c4Oc4ccc(cc4)CC3N(C)CC2)CCN1C (configuration not stated)", "MEAS VALUE": 0.971}
{"COMPOUND": "Nc1c(Br)cc(Br)cc1CNC1CCC(O)CC1 (configuration not stated)", "MEAS VALUE": 0.996}
{"COMPOUND": "CC(=O)Oc1cc(C)c2c(c1C(OC(C)=O)OC(C)=O)Oc1c(c(C)c(OC(C)=O)c3c1C(OC(C)=O)OC3=O)OC2=O (configuration not stated)", "MEAS VALUE": 1.01}

List reported normalized growth for each of these compounds:
1. C=CCN1CC[C@]23c4c5ccc(O)c4OC2C(=O)CC[C@@]3(O)[C@H]1C5 (some centres not stated)
2. CCOP(=S)(OCC)SCSCC

**Result**
[1.01, 0.979]
